src = patent US20190010203A1

Assignment: determine reported IC50 (nM), ADM-stimulated CLR/RAMP2 arrestin assay for the given binders.
Target: CLR/RAMP2 receptor (UniProt Q16602 23-461; O60895 43-175, limits assumed)
Sequence (Q16602 23-461 limits assumed, chain 1 of 2): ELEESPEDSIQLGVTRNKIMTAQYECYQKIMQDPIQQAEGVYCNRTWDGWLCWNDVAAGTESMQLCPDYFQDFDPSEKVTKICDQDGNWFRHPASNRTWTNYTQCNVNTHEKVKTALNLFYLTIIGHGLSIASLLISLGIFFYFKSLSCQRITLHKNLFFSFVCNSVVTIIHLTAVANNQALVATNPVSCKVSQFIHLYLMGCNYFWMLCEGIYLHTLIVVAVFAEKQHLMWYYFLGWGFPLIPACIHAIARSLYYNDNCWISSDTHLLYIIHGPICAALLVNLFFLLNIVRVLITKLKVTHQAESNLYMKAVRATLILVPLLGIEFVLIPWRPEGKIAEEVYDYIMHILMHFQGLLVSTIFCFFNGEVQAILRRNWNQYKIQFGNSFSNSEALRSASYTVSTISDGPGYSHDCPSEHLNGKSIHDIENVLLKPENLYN
Sequence (O60895 43-175 limits assumed, chain 2 of 2): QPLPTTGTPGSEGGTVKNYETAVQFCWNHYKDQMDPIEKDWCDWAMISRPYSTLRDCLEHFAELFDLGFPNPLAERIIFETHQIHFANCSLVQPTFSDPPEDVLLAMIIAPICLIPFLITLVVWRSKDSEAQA
Test: cell-based or functional assay
Non-standard residues stand in square brackets, D forms with d. No end group written: not given here. *: point of attachment. Palmitoyl = CCCCCCCCCCCCCCCC(=O)*; AEEA = NCCOCCOCC(=O)O
Report the figure in nM without appending any unit label.

State the recorded IC50 (nM), ADM-stimulated CLR/RAMP2 arrestin assay for this entry: [AEEA]K(Palmitoyl)VQKLAHQIYQFTDKDSAPVDPSSPHSY-NH2 [SEQ ID NO: 112] 5.3

State the recorded IC50 (nM), ADM-stimulated CLR/RAMP2 arrestin assay for this entry: Palmitoyl-TVQKLAHQIYQFTDKDKDNSAPVDPSSPHSY-NH2 [SEQ ID NO: 77] 47

State the recorded IC50 (nM), ADM-stimulated CLR/RAMP2 arrestin assay for this entry: Ac-TVQKLAHQIYQFTDKDKDNSAPVDPSSPHSY-NH2 [SEQ ID NO: 76] 289
